- Test system: MDA-MB-231 multicell spheroids, viability
- ASSAY_METHOD_TEXT: Anticancer human tumor MDA-MB-231 cell line growth inhibition [PI3K];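 note: spheroids exposed to agents for seven days before reading; percent of vehicle control luminescence with DMSO treated spheroids as 100%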
- EXPERIMENTAL_CONDITIONS: second compound 0.316 µM; first compound 0.949 µM; active compounds read low
MEASURED_METRIC: viability, T/C (%)
Only the number, expressed in %, is required.

Sample records with viability, T/C:
- Cn1cnc2c(F)c(Nc3ccc(Br)cc3Cl)c(C(=O)NOCCO)cc21 + Cc1nc(NC(=O)N2CCCC2C(N)=O)sc1-c1ccnc(C(C)(C)C(F)(F)F)c1: 34.3
- Cn1cnc2c(F)c(Nc3ccc(Br)cc3Cl)c(C(=O)NOCCO)cc21 + CC(Nc1ncnc2nc[nH]c12)c1cc2cccc(Cl)c2c(=O)n1-c1ccccc1: 39.1
- Cn1cnc2c(F)c(Nc3ccc(Br)cc3Cl)c(C(=O)NOCCO)cc21 + COc1c(OCCCN2CCOCC2)ccc2c3n(c(=NC(=O)c4cnc(N)nc4)nc12)CCN3: 12.2

Let's switch to this compound now.
QUERY: Looking for the measured viability, T/C of Cn1cnc2c(F)c(Nc3ccc(Br)cc3Cl)c(C(=O)NOCCO)cc21 + CC(Nc1ccc2c(c1)OCCn1cc(N3C(=O)OCC3C(F)F)nc1-2)C(N)=O , can you help?
RESULT: 33.4

----------
- Tested on: MDA-MB-231 multicell spheroids, viability
- ASSAY_METHOD_TEXT: Anticancer human tumor MDA-MB-231 cell line growth inhibition [PI3K];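 note: spheroids exposed to agents for seven days before reading; percent of vehicle control luminescence with DMSO treated spheroids as 100%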
- EXPERIMENTAL_CONDITIONS: second compound 0.316 µM; first compound 1 µM; active compounds read low
Lab note: cut-off is 50%. Strictly less in viability, T/C is class 1. Exactly 50% or more is class 0.

# example entries with known answers
• CC1(C)CCC(CN2CCN(c3ccc(C(=O)NS(=O)(=O)c4ccc(NCC5CCOCC5)c([N+](=O)[O-])c4)c(Oc4cnc5[nH]ccc5c4)c3)CC2)=C(c2ccc(Cl)cc2)C1 + CC(Nc1ccc2c(c1)OCCn1cc(N3C(=O)OCC3C(F)F)nc1-2)C(N)=O = class 0
• CCN1CCN(Cc2ccc(Nc3ncc(F)c(-c4cc(F)c5nc(C)n(C(C)C)c5c4)n3)nc2)CC1 + COc1c(OCCCN2CCOCC2)ccc2c3n(c(=NC(=O)c4cnc(N)nc4)nc12)CCN3 = class 1
• CC1(C)CCC(Nc2ncc(C(F)(F)F)c(-c3c[nH]c4c(P(C)(C)=O)c(C#N)ccc34)n2)CN1 (stereo not given) + COc1c(OCCCN2CCOCC2)ccc2c3n(c(=NC(=O)c4cnc(N)nc4)nc12)CCN3 = class 1
• CCCS(=O)(=O)Nc1ccc(F)c(C(=O)c2c[nH]c3ncc(-c4ccc(Cl)cc4)cc23)c1F + COc1c(OCCCN2CCOCC2)ccc2c3n(c(=NC(=O)c4cnc(N)nc4)nc12)CCN3 = class 1

QUERY: Is the reported viability, T/C for Cn1ncc(Cl)c1-c1cc(C(=O)NC(CN)Cc2cccc(F)c2)sc1Cl (stereo not given) + COc1c(OCCCN2CCOCC2)ccc2c3n(c(=NC(=O)c4cnc(N)nc4)nc12)CCN3 strictly below 50%?
RESULT: class 1

QUERY: Below 50% on viability, T/C? Entry CC(C)NCC(C(=O)N1CCN(c2ncnc3c2C(C)CC3O)CC1)c1ccc(Cl)cc1 (stereo not given) + COc1c(OCCCN2CCOCC2)ccc2c3n(c(=NC(=O)c4cnc(N)nc4)nc12)CCN3
RESULT: class 1

QUERY: Confirm or reject: viability, T/C of Cn1nccc1Nc1nccc(-c2ccn(C(CO)c3ccc(Cl)c(F)c3)c(=O)c2)n1 (stereo not given) + CC(Nc1ncnc2nc[nH]c12)c1cc2cccc(Cl)c2c(=O)n1-c1ccccc1 lies strictly below 50%
RESULT: class 1

QUERY: I wonder whether CC1(C)CCC(CN2CCN(c3ccc(C(=O)NS(=O)(=O)c4ccc(NCC5CCOCC5)c([N+](=O)[O-])c4)c(Oc4cnc5[nH]ccc5c4)c3)CC2)=C(c2ccc(Cl)cc2)C1 + CC(Nc1ncnc2nc[nH]c12)c1cc2cccc(Cl)c2c(=O)n1-c1ccccc1 has viability, T/C below 50%. Can you tell?
RESULT: class 0

QUERY: Dear colleague, could you confirm whether viability, T/C of CCN1CCN(Cc2ccc(Nc3ncc(F)c(-c4cc(F)c5nc(C)n(C(C)C)c5c4)n3)nc2)CC1 + Cc1nc(NC(=O)N2CCCC2C(N)=O)sc1-c1ccnc(C(C)(C)C(F)(F)F)c1 falls below 50%? Thanks.
RESULT: class 1

QUERY: Problem: For the compound C#Cc1c(F)ccc2cc(O)cc(-c3ncc4c(N5CC6CCC(C5)N6)nc(OCC56CCCN5CC(F)C6)nc4c3F)c12 (stereo not given) + Cc1nc(NC(=O)N2CCCC2C(N)=O)sc1-c1ccnc(C(C)(C)C(F)(F)F)c1 , is viability, T/C under 50%?
RESULT: class 0
